- System Name: Bifunctional epoxide hydrolase 2 (Homo sapiens)
- Sequence (P34913 whole entry): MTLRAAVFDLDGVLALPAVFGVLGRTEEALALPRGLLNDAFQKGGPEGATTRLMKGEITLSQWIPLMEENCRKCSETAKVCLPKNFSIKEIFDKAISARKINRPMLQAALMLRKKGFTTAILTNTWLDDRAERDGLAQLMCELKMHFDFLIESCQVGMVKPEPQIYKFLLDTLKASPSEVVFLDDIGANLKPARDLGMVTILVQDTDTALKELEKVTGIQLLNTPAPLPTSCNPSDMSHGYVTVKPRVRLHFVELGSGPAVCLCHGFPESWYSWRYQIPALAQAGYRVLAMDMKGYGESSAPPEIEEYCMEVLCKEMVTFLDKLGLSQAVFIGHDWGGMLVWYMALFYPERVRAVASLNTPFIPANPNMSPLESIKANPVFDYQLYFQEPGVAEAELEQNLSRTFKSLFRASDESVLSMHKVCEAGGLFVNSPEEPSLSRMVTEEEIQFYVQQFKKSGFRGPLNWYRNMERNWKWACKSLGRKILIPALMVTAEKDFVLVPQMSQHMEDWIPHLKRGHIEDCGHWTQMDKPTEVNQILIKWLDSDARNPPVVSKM
- Experiment Summary: Inhibition of sEH (unknown origin) assessed as 6-methoxy-2-naphthaldehyde formation by fluorometry assay using 40 uM cyano-(6-methoxy-naphthalen-2-yl)-methyl ester as substrate
Recorded IC50 by entry
Recorded Metric: IC50 (µM)

smiles_record=COc1cc(O[C@@H]2O[C@H](CO[C@@H]3O[C@H](CO)[C@@H](O)[C@H](O)[C@H]3O)[C@@H](O)[C@H](O)[C@H]2O)c2c(O)c3c(=O)cc(C)oc3cc2c1 quantity_unit=µM value_measured=37.5
smiles_record=COc1c(O[C@@H]2O[C@H](CO)[C@@H](O)[C@H](O)[C@H]2O)c(C)cc2c1C(=O)c1c(O)cccc1C2=O quantity_unit=µM value_measured=24.3
smiles_record=COc1cc2c(c(O)c1OC)C(=O)c1c(cc(C)c(O)c1OC)C2=O quantity_unit=µM value_measured=26.4
smiles_record=COc1cc(O[C@@H]2O[C@H](CO[C@@H]3O[C@H](CO)[C@@H](O)[C@H](O)[C@H]3O)[C@@H](O)[C@H](O)[C@H]2O)c2c(c1)C(=O)c1cc(C)cc(O)c1C2=O quantity_unit=µM value_measured=40.6
smiles_record=COc1cc(O[C@@H]2O[C@H](CO)[C@@H](O)[C@H](O)[C@H]2O)c2c(OC)c(C(C)=O)c(O[C@H]3OC[C@@](O)(CO)[C@@H]3O)cc2c1 quantity_unit=µM value_measured=2.2
smiles_record=COc1ccc2c(c1O)C(=O)c1c(cc(C)c(O)c1OC)C2=O quantity_unit=µM value_measured=35.7
smiles_record=COc1cc(O[C@@H]2O[C@H](CO[C@@H]3O[C@H](CO)[C@@H](O)[C@H](O)[C@H]3O)[C@@H](O)[C@H](O)[C@H]2O)c2c(O)c3c(=O)oc(C)cc3cc2c1 quantity_unit=µM value_measured=20
